For each of the compounds below, state its EC90.
system: HCV replicon cells; experiment: Cell-based HCV replicon assay (replicon RNA level by real time PCR, Taqman); settings: Hepatitis C virus, 72 h, HCV replicon cells, harvested on day 3, replicon RNA by real time PCR; calculated EC90 reported as range class; read-out: EC90 (μM) range

State the recorded EC90 for every item in the following list.
1. OC[C@H]1C[C@@H](Nc2nc(NC3CCOCC3)nc(Cl)c2-c2nc3ccccc3s2)[C@H](O)[C@@H]1O
2. OC[C@H]1C[C@@H](Nc2nc(NC3CCNCC3)nc(Cl)c2-c2nc3ccccc3s2)[C@H](O)[C@@H]1O
3. Cc1ccsc1CNc1nc(C)c(-c2nc3ccccc3s2)c(N[C@@H]2C[C@H](CO)[C@H]3OC(C)(C)O[C@H]32)n1
4. Cc1nc(NCc2ccc(C(F)(F)F)cc2)nc(N[C@@H]2C[C@H](CO)[C@@H](O)[C@H]2O)c1-c1nc2ccccc2s1

< 0.5 µM
> 5 µM
< 0.5 µM
< 0.5 µM

###

system: HCV replicon cells; experiment: Cell-based HCV replicon assay (replicon RNA level by real time PCR, Taqman); conditions: Hepatitis C virus, 72 h, HCV replicon cells, replicon RNA level by real time PCR, harvested day 3; read-out: EC90 (μM) range
reported_property: EC90

Worked set:
- compound: "Cc1nc(N[C@H](C)C2CC2)nc(N[C@@H]2C[C@@H](C(C)O)[C@@H](O)[C@H]2O)c1-c1nc2cnccc2s1 (stereo partly drawn) [Example 1651]"
  value_observed: "< 0.5 µM"
- compound: "CCS(=O)(=O)NC[C@H]1C[C@@H](Nc2nc(NCC(F)(F)F)nc(C)c2-c2nc3ccccc3s2)[C@H](O)[C@@H]1O [Example 1521]"
  value_observed: "0.5 to 5 µM"
- compound: "Cc1nc(N[C@H](c2ccc(C(F)(F)F)cc2)C(F)(F)F)nc(N[C@@H]2C[C@H](CO)[C@@H](O)[C@H]2O)c1-c1nc2c(C)nccc2s1 [Example 1531]"
  value_observed: "> 5 µM"

Hi, could you look up EC90 for each item in my list?
1. Cc1nc(NCC2CC2)nc(N[C@@H]2C[C@H](CO)[C@@H](O)[C@H]2O)c1-c1nc2c(OCC3CC3)nccc2s1 [Example 1338]
2. Cc1nc(N)nc(N[C@@H]2C[C@H](COS(C)(=O)=O)[C@@H](O)[C@H]2O)c1-c1nc2ccccc2s1 [Example 1905]

1. < 0.5 µM
2. 0.5 to 5 µM

For HCV replicon cells, give the measured EC90 of the entry COc1ccc(CCNc2nc(C)c(-c3nc4cnccc4s3)c(N[C@@H]3C[C@H](CO)[C@@H](O)[C@H]3O)n2)cc1Cl [Example 1913] 0.5 to 5 µM

###

tested on: HCV replicon cells; test: Cell-based HCV replicon assay (replicon RNA level by real time PCR, Taqman); settings: Hepatitis C virus, 72 h, HCV replicon cells, replicon RNA level by real time PCR, harvested day 3; read-out: EC90 (μM) range
For each entry below, report its EC90 value.

- compound: "Cc1nc(NCC(F)(F)F)nc(NC2CCN(C(=O)OC(C)(C)C)CC2)c1-c1nc2ccccc2s1 [Example 1514]"
  EC90: "> 5 µM"
- compound: "Cc1nc(N[C@H](C)c2ccc(OC(F)(F)F)cc2)nc(N[C@@H]2C[C@H](C(C)O)[C@@H](O)[C@H]2O)c1-c1nc2ccccc2s1 (single isomer, unassigned) [Example 1645]"
  EC90: "0.5 to 5 µM"
- compound: "Cc1nc(NCC2CC2)nc(N[C@@H]2CC[C@@H](O)C2O)c1-c1nc2ccccc2s1 (stereo partly shown) [Example 1626]"
  EC90: "0.5 to 5 µM"
- compound: "Cc1nc(NCC(F)(F)F)nc(N[C@@H]2C[C@H](CNS(=O)(=O)C3CC3)[C@@H](O)[C@H]2O)c1-c1nc2ccccc2s1 [Example 1513]"
  EC90: "0.5 to 5 µM"
- compound: "COC(=O)N(C)C[C@H]1C[C@@H](Nc2nc(NCC(F)(F)F)nc(C)c2-c2nc3ccccc3s2)[C@H](O)[C@@H]1O [Example 1390]"
  EC90: "0.5 to 5 µM"

Value sought for every listed compound: EC90.
1. CCO[C@@H]1[C@H](O)[C@@H](CO)C[C@H]1Nc1nc(NCC(F)(F)F)nc(C)c1-c1nc2ccccc2s1 [Example 1352]
2. Cc1nc(NCC(F)(F)F)nc(N[C@@H]2CC[C@@H](O)[C@@]2(C)O)c1-c1nc2c(C)nccc2s1 [Example 1816]

1. < 0.5 µM
2. < 0.5 µM

###

For each record, write down the corresponding EC90.
test system: HCV replicon cells; test: Cell-based HCV replicon assay (replicon RNA level by real time PCR, Taqman); conditions: Hepatitis C virus, 72 h, HCV replicon cells, harvested day 3, replicon RNA by real time PCR; reported as range class; read-out: EC90 (μM) range

Example entries begin here.
- compound_string: "Cc1cc2cc(-c3c(Cl)nc(N)nc3N[C@@H]3C[C@H](CO)[C@@H](O)[C@H]3O)oc2c(C)n1"
  measurement_target: "HCV replicon cells"
  reported_property: "EC90"
  value_observed: "< 0.5 µM"
- compound_string: "Nc1nc(Cl)c(-c2cc3ccccc3s2)c(N[C@@H]2C[C@H](CO)[C@@H](O)[C@H]2O)n1"
  measurement_target: "HCV replicon cells"
  reported_property: "EC90"
  value_observed: "> 5 µM"
- compound_string: "Nc1nc(Cl)c(-c2ccc(Oc3ccccc3)cc2)c(N[C@@H]2C[C@H](CO)[C@@H](O)[C@H]2O)n1"
  measurement_target: "HCV replicon cells"
  reported_property: "EC90"
  value_observed: "> 5 µM"
- compound_string: "CC(C)CNc1nc(Cl)c(-c2nc3ccccc3s2)c(N[C@@H]2C[C@H](CO)[C@@H](O)[C@H]2O)n1"
  measurement_target: "HCV replicon cells"
  reported_property: "EC90"
  value_observed: "< 0.5 µM"
- compound_string: "COCc1cc2cc(-c3c(Cl)nc(N)nc3N[C@@H]3C[C@H](CO)[C@@H](O)[C@H]3O)oc2c(C)n1"
  measurement_target: "HCV replicon cells"
  reported_property: "EC90"
  value_observed: "< 0.5 µM"
- compound_string: "CCOCCNc1nc(Cl)c(-c2nc3ccccc3s2)c(N[C@@H]2C[C@H](CO)[C@@H](O)[C@H]2O)n1"
  measurement_target: "HCV replicon cells"
  reported_property: "EC90"
  value_observed: "< 0.5 µM"

Alright, here's another molecule for you.
Tell me EC90 reported for `COCCCNc1nc(Cl)c(-c2nc3ccccc3s2)c(N[C@@H]2C[C@H](CO)[C@@H](O)[C@H]2O)n1` < 0.5 µM

###

Assignment: determine reported EC90 for the given compounds.
system: HCV replicon cells; assay: Cell-based HCV replicon assay (replicon RNA level by real time PCR, Taqman); details: Hepatitis C virus, 72 h, HCV replicon cells, harvested on day 3, replicon RNA by real time PCR; calculated EC90 reported as range class; read-out: EC90 (μM) range

For the 5 compounds below, give their EC90 values.
1. Cc1nc(NCc2ccccn2)nc(N[C@@H]2C[C@H](CO)[C@H]3OC(C)(C)O[C@H]32)c1-c1nc2ccccc2s1
2. CCOC(=O)NCCNc1nc(C)c(-c2nc3ccccc3s2)c(N[C@@H]2C[C@H](CO)[C@H]3OC(C)(C)O[C@H]32)n1
3. Cc1nc(NCc2cccc(C(F)(F)F)c2)nc(N[C@@H]2C[C@H](CO)[C@H]3OC(C)(C)O[C@H]32)c1-c1nc2ccccc2s1
4. CCOCCNc1nc(C)c(-c2nc(C)c(C)s2)c(N[C@@H]2C[C@H](CO)[C@@H](O)[C@H]2O)n1
5. CCc1cc2cc(-c3c(Cl)nc(NCCOC)nc3N[C@@H]3C[C@H](CO)[C@@H](O)[C@H]3O)oc2cn1

["0.5 to 5 µM", "< 0.5 µM", "0.5 to 5 µM", "0.5 to 5 µM", "< 0.5 µM"]

###

System: HCV replicon cells
Experiment: Cell-based HCV replicon assay (replicon RNA level by real time PCR, Taqman)
Conditions: Hepatitis C virus, 72 h, HCV replicon cells, replicon RNA level by real time PCR, harvested day 3; read-out: EC90 (μM) range
Procedure: Assays Cell-Based HCV Replicon Assay To measure cell-based anti-HCV activity of the compounds of the present invention, replicon cells were seeded at 5000 cells/well in 96-well collagen I-coated Nunc plates in the presence of the compound of the invention. […] The replicon RNA level was measured using real time PCR (Taqman assay). […]
reported_property: EC90

Recorded EC90, per entry:
- compound: "CCCc1nccc2sc(-c3c(C)nc(N[C@H](C)C(F)(F)F)nc3N[C@@H]3C[C@H](CO)[C@@H](O)[C@H]3O)nc12"
  EC90: "< 0.5 µM"
- compound: "Cc1nc(N[C@H](C)C(F)(F)F)nc(N[C@@H]2C[C@H](CO)[C@@H](O)[C@H]2O)c1-c1nc2c(C)nccc2s1"
  EC90: "< 0.5 µM"
- compound: "Cc1nc(N[C@H](C)c2ccc(OC(F)(F)F)cc2)nc(N[C@@H]2C[C@H](CO)[C@@H](O)[C@H]2O)c1-c1nc2c(C3CC3)nccc2s1"
  EC90: "< 0.5 µM"
- compound: "Cc1ccc([C@@H](C)Nc2nc(C)c(-c3nc4ccccc4o3)c(N[C@@H]3C[C@H](CO)[C@@H](O)[C@H]3O)n2)cc1"
  EC90: "0.5 to 5 µM"

Can you give me EC90 for all of these, one by one?
1. Cc1nc(NCC(F)(F)F)nc(N[C@@H]2C[C@H](O)[C@@H](O)[C@H]2O)c1-c1nc2ccccc2s1
2. Cc1nc(N[C@H](C)c2ccc(OC(F)(F)F)cc2)nc(N[C@@H]2C[C@H](CO)[C@@H](O)[C@@]2(C)O)c1-c1nc2cnccc2s1
3. Cc1nc(NCC2CC2)nc(N[C@@H]2C[C@H](CO)[C@@H](O)[C@H]2O)c1-c1cc2ccccc2s1
4. Cc1nc(N[C@H](C)C2CC2)nc(N[C@@H]2C[C@H](C(C)O)[C@@H](O)[C@H]2O)c1-c1nc2cnccc2s1 (some centres unmarked)

1. 0.5 to 5 µM
2. < 0.5 µM
3. > 5 µM
4. < 0.5 µM

# batch size: 5; output EC90 per entry
1. CCN(C[C@@H]1C[C@@H](Nc2nc(NCC(F)(F)F)nc(C)c2-c2nc3ccccc3s2)[C@H](O)[C@@H]1O)S(C)(=O)=O
2. Cc1nc(NCC(C)(C)C)nc(N[C@@H]2C[C@H](CO)[C@@H](O)[C@H]2O)c1-c1nc2ccccc2o1
3. Cc1nc(NCC(F)(F)F)nc(N[C@H]2CN[C@@H](CO)C2)c1-c1nc2ccccc2s1
4. Cc1ccc([C@@H](C)Nc2nc(C)c(-c3nc4cnccc4s3)c(N)n2)cc1
5. Cc1nc(N[C@H](C)c2ccc(-n3cccn3)cc2)nc(N[C@@H]2C[C@H](CO)[C@@H](O)[C@H]2O)c1-c1nc2c(C)nccc2s1

0.5 to 5 µM
< 0.5 µM
> 5 µM
< 0.5 µM
< 0.5 µM

Batch request: EC90 per item, same order as input.
1. Cc1nc(N[C@H](C)c2ccc(C(F)(F)F)cc2)nc(N[C@@H]2C[C@H](CO)[C@@H](O)[C@H]2O)c1-c1nc2c(C)nccc2s1
2. COC[C@@H](Nc1nc(C)c(-c2nc3c(C)nccc3s2)c(N[C@@H]2C[C@H](CO)[C@@H](O)[C@H]2O)n1)c1ccccc1
3. Cc1ccc(CCNc2nc(C)c(-c3nc4ccccc4s3)c(N[C@@H]3C[C@H](CO)[C@@H](O)[C@H]3O)n2)s1

1. < 0.5 µM
2. 0.5 to 5 µM
3. 0.5 to 5 µM

Hi, could you look up EC90 for each item in my list?
1. Cc1nc(NCC(F)(F)F)nc(N[C@@H]2CC[C@@H](O)[C@@]2(C)O)c1-c1nc2ccccc2s1
2. CCC(O)[C@H]1C[C@@H](Nc2nc(NCC(F)(F)F)nc(C)c2-c2nc3ccccc3s2)[C@H](O)[C@@H]1O (some centres unmarked)
3. Cc1ccsc1CCNc1nc(C)c(-c2nc3cnccc3s2)c(N[C@@H]2C[C@H](CO)[C@@H](O)[C@H]2O)n1
4. Cc1nc(NCCc2cccs2)nc(N[C@@H]2C[C@H](CO)[C@@H](O)[C@H]2O)c1-c1nc2ccccc2s1

1. 0.5 to 5 µM
2. 0.5 to 5 µM
3. < 0.5 µM
4. < 0.5 µM

State recorded EC90 for all listed compounds.
1. CCOCCNc1nc(C)c(-c2nc3c(CC)nccc3s2)c(N[C@@H]2C[C@H](CO)[C@@H](O)[C@H]2O)n1
2. Cc1ccc(CCNc2nc(C)c(-c3nc4cnccc4s3)c(N[C@@H]3C[C@H](CO)[C@@H](O)[C@H]3O)n2)s1
3. Cc1nc(NCc2ccc3[nH]cnc3c2)nc(N[C@@H]2C[C@H](CO)[C@@H](O)[C@H]2O)c1-c1nc2ccccc2s1
4. Cc1nc(NCC(F)(F)F)nc(N[C@@H]2C[C@H](CN(C)S(C)(=O)=O)[C@@H](O)[C@H]2O)c1-c1nc2ccccc2s1

["< 0.5 µM", "< 0.5 µM", "< 0.5 µM", "< 0.5 µM"]

Count: 2. Required value per item: EC90.
1. COCCNc1nc(C)c(-c2cc3ccccc3s2)c(N[C@@H]2C[C@H](CO)[C@@H](O)[C@H]2O)n1
2. Cc1nc(NCC(F)(F)F)nc(N[C@@H]2C[C@H](CNS(=O)(=O)C(F)(F)F)[C@@H](O)[C@H]2O)c1-c1nc2ccccc2s1

["> 5 µM", "0.5 to 5 µM"]
